Assay: Acute oral toxicity test in rats
Conditions: rat, in vivo, mature rats 200-250 g, dissolved in ethylacetate
Experimental: The acute toxicity tests on rats were performed using the compound prepared by the procedure of the Example 1. Mature rats weighing 200-250 g were orally given the compound of the Example 1 dissolved in ethylacetate in parallel with its gradually increasing concentration. Then, LD50 was calculated by number of killed animals.
measured.property: LD50 (mg/kg)
Numbers only, in mg/kg.

// query Reported LD50 for CCOC(=O)C(O)(CO)CCCCCCOCc1ccccc1 (stereo not shown) [Example 1] : what is it?
// result 482

FYI, the data here is from patent US6030993A.
